biological target: Insulin-like growth factor 1 receptor (Homo sapiens); experiment: Inhibition of human recombinant IGF-1 receptor expressed in mouse 3T3 cells treated for 15 mins by ELISA analysis; type: cell-based
Sequence (P08069 31-736 limits assumed): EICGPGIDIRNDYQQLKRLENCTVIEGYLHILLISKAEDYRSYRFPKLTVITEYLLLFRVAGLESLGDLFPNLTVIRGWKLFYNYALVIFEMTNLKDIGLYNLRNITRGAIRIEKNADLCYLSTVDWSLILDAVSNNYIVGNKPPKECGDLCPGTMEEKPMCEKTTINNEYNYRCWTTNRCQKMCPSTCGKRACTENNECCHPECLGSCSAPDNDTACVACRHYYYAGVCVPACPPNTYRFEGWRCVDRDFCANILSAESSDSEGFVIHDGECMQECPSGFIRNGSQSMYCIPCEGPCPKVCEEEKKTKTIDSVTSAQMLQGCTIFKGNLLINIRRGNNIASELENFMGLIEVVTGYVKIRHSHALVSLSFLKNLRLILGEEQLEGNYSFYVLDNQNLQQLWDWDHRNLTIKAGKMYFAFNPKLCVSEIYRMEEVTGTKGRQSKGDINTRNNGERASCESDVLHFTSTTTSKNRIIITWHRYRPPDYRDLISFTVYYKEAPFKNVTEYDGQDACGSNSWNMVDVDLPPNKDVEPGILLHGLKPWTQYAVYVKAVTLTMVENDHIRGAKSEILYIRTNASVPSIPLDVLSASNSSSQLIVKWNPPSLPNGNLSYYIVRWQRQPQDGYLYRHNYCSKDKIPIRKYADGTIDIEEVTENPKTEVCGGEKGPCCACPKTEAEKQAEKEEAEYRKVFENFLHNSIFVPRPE
Sequence (P08069 741-1367 limits assumed): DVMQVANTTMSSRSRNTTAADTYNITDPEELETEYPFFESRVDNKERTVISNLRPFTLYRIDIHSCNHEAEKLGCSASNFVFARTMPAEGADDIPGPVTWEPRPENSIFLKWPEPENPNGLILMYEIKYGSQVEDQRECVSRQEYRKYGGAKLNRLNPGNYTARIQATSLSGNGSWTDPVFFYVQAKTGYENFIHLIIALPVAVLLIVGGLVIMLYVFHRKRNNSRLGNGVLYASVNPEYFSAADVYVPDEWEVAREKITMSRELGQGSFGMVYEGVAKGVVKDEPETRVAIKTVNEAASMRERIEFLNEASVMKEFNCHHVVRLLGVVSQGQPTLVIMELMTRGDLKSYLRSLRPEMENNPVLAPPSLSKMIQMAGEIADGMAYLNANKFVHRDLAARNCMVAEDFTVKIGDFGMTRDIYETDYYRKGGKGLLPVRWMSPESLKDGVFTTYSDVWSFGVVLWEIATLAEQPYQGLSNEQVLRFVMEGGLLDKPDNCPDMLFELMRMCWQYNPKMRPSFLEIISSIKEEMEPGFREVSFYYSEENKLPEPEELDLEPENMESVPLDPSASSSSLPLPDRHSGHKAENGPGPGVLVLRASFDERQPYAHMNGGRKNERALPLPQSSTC
Parameter: IC50. Scope: all listed entries.
quantity-measured: IC50 (nM)

CN1CCN([C@H]2C[C@@H](c3nc(-c4ccc5ccc(-c6ccccc6)nc5c4)c4c(N)nccn43)C2)CC1 ... 19
Nc1nccn2c1c(-c1ccc3ccc(-c4ccccc4)nc3c1)nc2[C@H]1CC[C@H](C(N)=O)CC1 ... 42

----------
molecular target: Platelet-derived growth factor receptor (Homo sapiens, UniProt P09619+P16234); assay: Inhibition of PDGFR-alpha/beta (unknown origin) in presence of ATP Km treated at 2 hrs followed by […] ligand addition for 15 mins by ELISA analysis
quantity-measured: IC50

C[C@]1(O)C[C@@H](c2nc(-c3ccc4ccc(-c5ccccc5)nc4c3)c3c(N)nccn32)C1 [LINSITINIB] ... > 10 µM
